- Test system: Toxoplasma gondii RH (in HFF)
- test-protocol: parasite growth relative to the screen mean (all compounds = 100%); higher = less inhibition of parasite growth
- reported-conditions: 5 µM; 72 h; oxygen 21 %
Counter-ions that a name gives are not always drawn.
measurement-name: parasite growth (%)
Response body: numeric value in %, unit text excluded.

C[N+](C)(C)CC[N+]1(C)Cc2c(Cl)c(Cl)c(Cl)c(Cl)c2C1 [Chlorisondamine diiodide]    168
Cl/C(=C\n1cncn1)c1ccc(Cl)cc1Cl [Loreclezole hydrochloride]    146

So, O=C(O)CCCc1ccccc1 [sodium 4-Phenylbutyrate] ? Its parasite growth was 64.6

So, `NC(=O)CCCCn1ccc(NC(N)=NCC(F)(F)F)n1` ? Its parasite growth was 95.1

So, CNCCCCOc1ccccc1Cc1ccccc1 [Bifemelane hydrochloride] ? Its parasite growth was 43.6

So, `CC(Oc1ccc(O)cc1)(P(=O)(O)O)P(=O)(O)O` ? Its parasite growth was 101
